From: patent US8563540B2

Target: p110 delta (Homo sapiens)
Construct: Dundee, UK
Sequence (O00329 whole entry): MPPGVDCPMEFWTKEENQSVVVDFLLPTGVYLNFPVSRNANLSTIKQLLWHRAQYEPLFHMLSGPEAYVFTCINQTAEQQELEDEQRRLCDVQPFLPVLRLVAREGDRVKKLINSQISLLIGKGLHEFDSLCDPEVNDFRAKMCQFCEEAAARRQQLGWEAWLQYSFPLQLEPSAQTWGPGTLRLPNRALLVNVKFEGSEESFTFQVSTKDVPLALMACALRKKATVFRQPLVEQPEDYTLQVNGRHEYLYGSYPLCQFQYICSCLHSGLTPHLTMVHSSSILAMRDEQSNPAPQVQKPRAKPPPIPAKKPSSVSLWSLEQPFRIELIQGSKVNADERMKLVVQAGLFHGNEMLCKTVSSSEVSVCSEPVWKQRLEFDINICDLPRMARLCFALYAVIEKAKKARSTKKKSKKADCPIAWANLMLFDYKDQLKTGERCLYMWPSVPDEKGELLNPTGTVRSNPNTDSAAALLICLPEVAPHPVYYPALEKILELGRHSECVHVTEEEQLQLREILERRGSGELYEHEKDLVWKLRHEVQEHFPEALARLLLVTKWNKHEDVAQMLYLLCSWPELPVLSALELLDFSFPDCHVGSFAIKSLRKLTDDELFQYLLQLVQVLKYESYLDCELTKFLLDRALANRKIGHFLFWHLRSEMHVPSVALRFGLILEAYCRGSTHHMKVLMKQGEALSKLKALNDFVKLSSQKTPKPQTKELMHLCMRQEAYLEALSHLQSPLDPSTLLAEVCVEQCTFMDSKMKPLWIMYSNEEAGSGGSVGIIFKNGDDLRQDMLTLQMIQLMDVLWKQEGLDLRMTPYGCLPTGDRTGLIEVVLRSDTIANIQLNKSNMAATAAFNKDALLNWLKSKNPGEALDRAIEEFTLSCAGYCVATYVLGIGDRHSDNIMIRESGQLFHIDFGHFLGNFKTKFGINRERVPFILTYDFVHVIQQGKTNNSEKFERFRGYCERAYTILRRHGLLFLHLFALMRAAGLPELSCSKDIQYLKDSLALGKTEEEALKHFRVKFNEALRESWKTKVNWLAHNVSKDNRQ
Sequence (P27986 whole entry partner): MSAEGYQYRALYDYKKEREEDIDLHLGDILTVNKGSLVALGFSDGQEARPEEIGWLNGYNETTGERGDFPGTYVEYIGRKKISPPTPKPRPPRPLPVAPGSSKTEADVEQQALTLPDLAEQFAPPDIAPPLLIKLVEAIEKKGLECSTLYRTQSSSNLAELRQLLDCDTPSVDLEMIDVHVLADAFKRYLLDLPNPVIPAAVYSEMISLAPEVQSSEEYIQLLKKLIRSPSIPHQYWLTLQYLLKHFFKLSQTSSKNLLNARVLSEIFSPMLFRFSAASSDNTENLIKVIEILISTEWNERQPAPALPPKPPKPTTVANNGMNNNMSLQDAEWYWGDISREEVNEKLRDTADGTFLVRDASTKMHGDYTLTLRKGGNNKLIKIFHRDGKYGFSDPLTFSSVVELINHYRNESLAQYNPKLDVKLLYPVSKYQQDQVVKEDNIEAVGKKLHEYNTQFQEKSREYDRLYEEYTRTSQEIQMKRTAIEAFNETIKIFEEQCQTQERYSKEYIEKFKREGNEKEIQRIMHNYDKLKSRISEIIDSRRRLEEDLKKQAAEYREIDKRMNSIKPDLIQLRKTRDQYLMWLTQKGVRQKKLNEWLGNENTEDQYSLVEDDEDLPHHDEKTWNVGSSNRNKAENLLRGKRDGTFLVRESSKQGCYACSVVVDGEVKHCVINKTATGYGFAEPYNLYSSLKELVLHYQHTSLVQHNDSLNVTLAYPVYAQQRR
Assay: PI3K Isoform Inhibition Assay, p110 delta
Details: PI3K isoform inhibition assay of Example 901
EXPERIMENTAL READOUT: IC50 (nM)

Example results:
INSERT INTO measurements (entry_smiles, meas_value) VALUES
  ('Cc1cc(Nc2nc(N3CCOCC3)c3nc(CN4CCC(C(C)(C)O)CC4)ccc3n2)n[nH]1', 66.9),
  ('Nc1ncc(-c2nc(N3CCOCC3)c3ncc(C4CC4)cc3n2)cn1', 3.88),
  ('COC(=O)C(C)(C)N1CC(Cc2ccc3nc(-n4c(C(C)C)nc5ccccc54)nc(N4CCOCC4)c3n2)C1', 5.09),
  ('CC(F)(F)c1nc2ccccc2n1-c1nc(N2CCOCC2)c2nc(CN3CCC(C(C)(C)O)CC3)ccc2n1', 2.31),
  ('CC(C)(O)CNCc1ccc2nc(-c3c(F)ccc4[nH]ccc34)nc(N3CCOCC3)c2n1', 35.9),
  ('CC(C)(C(N)=O)N1CCN(Cc2ccc3nc(-c4c[nH]c5ccccc45)nc(N4CCOCC4)c3n2)CC1', 4.48);

[I] O=S1(=O)CCN(C2CN(Cc3ccc4nc(-c5c(F)ccc6[nH]ccc56)nc(N5CCOCC5)c4n3)C2)CC1
[II] Fc1ccc2[nH]ccc2c1-c1nc(N2CCOCC2)c2nc(CN3CC(C4CCOCC4)C3)ccc2n1
Incoming: Kindly identify which of I and II has the larger recorded IC50 value. Please respond with the label that marks your chosen entry.
Outgoing: II
